Assay: Pharmacokinetics after single i.p. injection, serum and brain (UHPLC-MS/MS)
Assay type: in vivo, mouse
Details: C57BL/6 (mouse); Sprague Dawley (rat), intraperitoneal; mouse and rat brain; read-out: Share of Pegasus detected in the brain
observed.property: Kp

// Kp lookup, key: C[C@H]1c2ccc(NC(=O)CCC(=O)NCCc3ccc(O)c(O)c3)c(O)c2C(=O)C2=C(O)[C@]3(O)C(=O)C(C(N)=O)=C(O)CC3[C@@H](O)C21 (stereo partly shown)
< 0.01

###

Experiment: In vivo metabolism, metabolite profiling in rat brain and plasma (LC-MS/MS)
Settings: male, Sprague Dawley, intraperitoneal, 50 mg/kg; relative abundance brain vs plasma, rat
observed.property: Kp
Give the figure by itself; no unit, no explanation.

| compound | Kp |
| --- | --- |
| C[C@H]1c2ccc(NC(=O)CCC(=O)NCCc3ccc(O)c(O)c3)c(O)c2C(=O)C2=C(O)[C@]3(O)C(=O)C(C(N)=O)=C(O)CC3[C@@H](O)C21 (some centres unmarked) | 0 |

// Kp lookup, key: NC(=O)CCC(=O)NCCc1cc(O)c(O)c(SCC(N)C(=O)O)c1 (centres unmarked)
1.31

###

Assay: Pharmacokinetics after single i.p. injection, serum and brain (UHPLC-MS/MS)
Type: in vivo, mouse
Conditions: both sexes, C57BL/6, mouse, brain, ip, 50 mg/kg, 50 mg/kg ip; read-out: Brain T1/2 (elimination) (converted)
observed.property: half-life (h)
Report only the number, with the unit h understood.

// half-life lookup, key: C[C@H]1c2ccc(NC(=O)CCC(=O)NCCc3ccc(O)c(O)c3)c(O)c2C(=O)C2=C(O)[C@]3(O)C(=O)C(C(N)=O)=C(O)CC3[C@@H](O)C21 (stereo partly shown)
3.77

###

Experiment: Pharmacokinetics after single i.p. injection, serum and brain (UHPLC-MS/MS)
Format: in vivo, mouse
Details: both sexes, C57BL/6, mouse, serum, ip, 50 mg/kg, 50 mg/kg ip; read-out: Serum T1/2 (elimination) (converted)
observed.property: half-life
Give your result as the value with the unit written after it.

// half-life lookup, key: C[C@H]1c2ccc(NC(=O)CCC(=O)NCCc3ccc(O)c(O)c3)c(O)c2C(=O)C2=C(O)[C@]3(O)C(=O)C(C(N)=O)=C(O)CC3[C@@H](O)C21 (stereo partly shown) [Pegasus]
4.11 h

###

Experiment: Pharmacokinetics after single i.p. injection, serum and brain (UHPLC-MS/MS)
Format: in vivo, mouse
Settings: both sexes, C57BL/6, mouse, serum, ip, 50 mg/kg, 50 mg/kg ip; read-out: Serum AUC (0-inf)
observed.property: AUC(0-inf) (µg·h/mL)
Report only the number, with the unit µg·h/mL understood.

// AUC(0-inf) lookup, key: C[C@H]1c2ccc(NC(=O)CCC(=O)NCCc3ccc(O)c(O)c3)c(O)c2C(=O)C2=C(O)[C@]3(O)C(=O)C(C(N)=O)=C(O)CC3[C@@H](O)C21 (stereo partly shown)
17.2

###

Test: Pharmacokinetics after single i.p. injection, serum and brain (UHPLC-MS/MS)
Type: in vivo, mouse
Conditions: both sexes, C57BL/6, mouse, serum; 50 mg/kg ip; read-out: Serum Cmax
observed.property: Cmax

// Cmax lookup, key: C[C@H]1c2ccc(NC(=O)CCC(=O)NCCc3ccc(O)c(O)c3)c(O)c2C(=O)C2=C(O)[C@]3(O)C(=O)C(C(N)=O)=C(O)CC3[C@@H](O)C21 (stereo partly shown)
7.97 µM

###

Assay: Pharmacokinetics after single i.p. injection, serum and brain (UHPLC-MS/MS)
Assay type: in vivo, mouse
Conditions: both sexes, C57BL/6, mouse, serum, ip, 100 mg/kg, across 50 and 100 mg/kg i.p.; read-out: Elimination half time T1/2 in the serum
observed.property: half-life

// half-life lookup, key: C[C@H]1c2ccc(NC(=O)CCC(=O)NCCc3ccc(O)c(O)c3)c(O)c2C(=O)C2=C(O)[C@]3(O)C(=O)C(C(N)=O)=C(O)CC3[C@@H](O)C21 (stereo partly shown)
247 to 284 min

###

Experiment: Pharmacokinetics after single i.p. injection, serum and brain (UHPLC-MS/MS)
Format: in vivo, mouse
Details: both sexes, C57BL/6, mouse, brain/serum, intraperitoneal; 50 mg/kg ip; read-out: Ratio of Brain/Serum (%)
observed.property: Kp

// Kp lookup, key: C[C@H]1c2ccc(NC(=O)CCC(=O)NCCc3ccc(O)c(O)c3)c(O)c2C(=O)C2=C(O)[C@]3(O)C(=O)C(C(N)=O)=C(O)CC3[C@@H](O)C21 (stereo partly shown)
0.007

###

Experiment: Pharmacokinetics after single i.p. injection, serum and brain (UHPLC-MS/MS)
Type: in vivo, mouse
Conditions: both sexes, C57BL/6, mouse, serum, ip, 100 mg/kg, across 50 and 100 mg/kg i.p.; read-out: AUC0-inf in the serum
observed.property: AUC(0-inf)

// AUC(0-inf) lookup, key: C[C@H]1c2ccc(NC(=O)CCC(=O)NCCc3ccc(O)c(O)c3)c(O)c2C(=O)C2=C(O)[C@]3(O)C(=O)C(C(N)=O)=C(O)CC3[C@@H](O)C21 (stereo partly shown) [Pegasus]
17200 to 49100 ng·h/mL

###

Assay: Pharmacokinetics after single i.p. injection, serum and brain (UHPLC-MS/MS)
Assay type: in vivo, mouse
Conditions: both sexes, C57BL/6, mouse, serum; 100 mg/kg ip; read-out: Serum Cmax (ng/ml)
observed.property: Cmax

// Cmax lookup, key: C[C@H]1c2ccc(NC(=O)CCC(=O)NCCc3ccc(O)c(O)c3)c(O)c2C(=O)C2=C(O)[C@]3(O)C(=O)C(C(N)=O)=C(O)CC3[C@@H](O)C21 (stereo partly shown)
21300 ng/mL

###

Assay: Pharmacokinetics after single i.p. injection, serum and brain (UHPLC-MS/MS)
Type: in vivo, mouse
Settings: both sexes, C57BL/6, mouse, brain/serum, intraperitoneal; across 50 and 100 mg/kg i.p.; read-out: Percentage ratio of brain/serum
observed.property: Kp

// Kp lookup, key: C[C@H]1c2ccc(NC(=O)CCC(=O)NCCc3ccc(O)c(O)c3)c(O)c2C(=O)C2=C(O)[C@]3(O)C(=O)C(C(N)=O)=C(O)CC3[C@@H](O)C21 (stereo partly shown) [Pegasus]
0.006 to 0.007

###

Assay: Pharmacokinetics after single i.p. injection, serum and brain (UHPLC-MS/MS)
Format: in vivo, mouse
Conditions: both sexes, C57BL/6, mouse, serum; 50 mg/kg ip; read-out: Serum Cmax (ng/ml)
observed.property: Cmax

// Cmax lookup, key: C[C@H]1c2ccc(NC(=O)CCC(=O)NCCc3ccc(O)c(O)c3)c(O)c2C(=O)C2=C(O)[C@]3(O)C(=O)C(C(N)=O)=C(O)CC3[C@@H](O)C21 (stereo partly shown)
5190 ng/mL
